Target: Human Siglec-9-Fc (recombinant human Siglec-9 extracellular domain Q18-G348 fused to human IgG1 Fc) (human)
Sequence (chain, as listed by the source limits assumed): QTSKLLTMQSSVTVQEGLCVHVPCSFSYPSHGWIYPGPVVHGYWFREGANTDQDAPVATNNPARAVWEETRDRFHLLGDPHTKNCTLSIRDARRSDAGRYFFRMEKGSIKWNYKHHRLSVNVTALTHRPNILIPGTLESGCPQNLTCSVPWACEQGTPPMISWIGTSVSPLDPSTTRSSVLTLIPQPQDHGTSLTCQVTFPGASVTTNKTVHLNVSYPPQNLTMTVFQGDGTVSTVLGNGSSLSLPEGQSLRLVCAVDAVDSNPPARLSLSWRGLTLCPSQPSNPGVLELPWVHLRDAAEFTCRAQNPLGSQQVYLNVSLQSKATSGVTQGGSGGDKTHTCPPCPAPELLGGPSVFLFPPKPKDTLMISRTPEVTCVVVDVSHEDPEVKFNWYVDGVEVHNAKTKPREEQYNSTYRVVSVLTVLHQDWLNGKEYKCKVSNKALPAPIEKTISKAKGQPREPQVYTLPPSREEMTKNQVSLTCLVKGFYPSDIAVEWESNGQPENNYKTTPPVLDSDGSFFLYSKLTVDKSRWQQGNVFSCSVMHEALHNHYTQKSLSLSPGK
Test: BLI binning, hSiglec-9-Fc on AHC sensor; competitor bound first (row): 9D21
assay.endpoint: maximum binding nm shift

Exam item: Any idea what maximum binding nm shift was measured for 9C15 (antibody, V domains shown) VH: QVQLQQPGAELVKPGASVKMSCKASGYTFTSYWITWLNQRPGQGLEWIGDIYPGSGGTNYNERFKSKATLTVDTSSSTAYMQLSSLTSEDSAVYYCARSGGWAMDYWGQGTSVTVSS VL: DIQMTQTTSSLSASLGDRVTISCRASQDISNYLNWYQQKPDGTVKLLIYYKSGLHSGVPSRFSGSGSGTDYSLTISNLEQEDIATYFCQQGNTLPFTFGGGTKLEIK ?
Marked response: 0.395 nm
